System: lung fibroblasts (MRC-5)
Assay: Cytotoxicity, MTT reduction assay, MRC-5
Format: cell-based
Details: Homo sapiens, MRC5, confluent cultures, 24 h, read-out: IC50 ± SD, MRC-5
# pIC50 listing for each entry below
FYI, pIC50 means -log10 of a concentration in mol per litre.

Incoming: For the compound C=C1CCC2[C@](C)(CCC[C@]2(C)C(=O)O)[C@H]1CC[C@@H](C)CCOC(=O)[C@@H](C)c1ccc(CC(C)C)cc1 (mixture of isomers) [Compound 8, Imbricatol-15-yl ibuprofenate] , give its reported pIC50.
Outgoing: 4.47

----------
System: lung fibroblasts (MRC-5)
Test: Cytotoxicity, MTT reduction assay, MRC-5
Type: cell-based
Conditions: Homo sapiens, MRC5, confluent cultures, 24 h, read-out: IC50 ± SD, MRC-5
Below, each entry is listed alongside its reported IC50.
Write the value in µM as a bare number.

Examples with answers:
compound: COc1cc([C@@H]2c3cc4c(cc3[C@@H](O[C@@H]3O[C@@H]5CO[C@@H](C)O[C@H]5[C@H](O)[C@H]3O)[C@H]3COC(=O)[C@H]23)OCO4)cc(OC)c1O [Etoposide, reference compound]
value_units: µM
value_observed: 3.9
//
compound: CC1(C)CC[C@]2(C(=O)O)CC[C@]3(C)C(=CC[C@@H]4[C@@]5(C)CC[C@H](O)C(C)(C)[C@@H]5CC[C@]43C)[C@@H]2C1 [Compound 3, oleanolic acid, reference compound]
value_units: µM
value_observed: 186
//
compound: CC(C)c1cc2c(cc1O)[C@@]1(C)CCCC(C)(C)[C@@H]1CC2 [Compound 1, ferruginol, reference compound]
value_units: µM
value_observed: 31

Incoming: Give me measured IC50, please, for this compound: COc1ccc2cc([C@H](C)C(=O)Oc3cc4c(cc3C(C)C)CCC3C(C)(C)CCC[C@]43C)ccc2c1 (some centres unmarked) [Compound 7, Ferruginyl naproxenate]
Outgoing: 945

Incoming: Supply IC50 value. Item: C=C1CC[C@@H]2[C@](C)(CCC[C@]2(C)C(=O)O)[C@H]1CC[C@H](C)CCO [Compound 2, imbricatolic acid, reference compound]
Outgoing: 134

----------
Tested on: lung fibroblasts (MRC-5)
Assay: Cytotoxicity, MTT reduction assay, MRC-5
Type: cell-based
Conditions: Homo sapiens, MRC5, confluent cultures, 24 h, read-out: IC50 ± SD, MRC-5
IC50 values for the compounds below.

Record excerpt, results attached:
compound: CC(C)Cc1ccc([C@H](C)C(=O)Oc2cc3c(cc2C(C)C)CCC2C(C)(C)CCC[C@]32C)cc1 (mixture of isomers) [Compound 6, Ferruginyl ibuprofenate]
target_or_system: lung fibroblasts (MRC-5)
IC50: > 1000 µM
//
compound: COc1ccc2cc([C@H](C)C(=O)O)ccc2c1 [Compound 5, naproxen, reference compound]
target_or_system: lung fibroblasts (MRC-5)
IC50: > 1000 µM

Please turn your attention to the following entry.
Incoming: Return IC50 (reported value) for this compound: CC(C)Cc1ccc(C(C)C(=O)O)cc1 (stereo not drawn) [Compound 4, ibuprofen, reference compound]
Outgoing: > 1000 µM
